target: CTLA-4 (Homo sapiens (Human)) (UniProt P16410); test: flow cytometry, transfected cells
Sequence (P16410 36-223): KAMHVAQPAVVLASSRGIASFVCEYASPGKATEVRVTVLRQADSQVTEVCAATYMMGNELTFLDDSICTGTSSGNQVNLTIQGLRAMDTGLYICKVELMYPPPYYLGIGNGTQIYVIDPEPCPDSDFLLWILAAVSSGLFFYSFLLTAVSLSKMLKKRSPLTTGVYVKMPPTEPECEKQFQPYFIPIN
valueKind: MFI

Name the recorded MFI for ICOSL-Fc N52A/N57H/Q100S (Fc fusion) DTQEKEVRAMVGSDVELSCACPEGSRFDLNDVYVYWQTSESKTVVTYHIPQASSLEHVDSRYRNRALMSPAGMLRGDFSLRLFNVTPQDEQKFHCLVLSSSLGFQEVLSVEVTLHVAANFSVPVVSAPHSPSQDELTFTCTSINGYPRPNVYWINKTDNSLLDQALQNDTVFLNMRGLYDVVSVLRIARTPSVNIGCCIENVLLQQNLTVGSQTGNDIGERDKITENPVSTGEKNAAT . 321000 MFI

Same lookup for ICOSL-Fc N52S/N57Y/Q100S (Fc fusion) DTQEKEVRAMVGSDVELSCACPEGSRFDLNDVYVYWQTSESKTVVTYHIPQSSSLEYVDSRYRNRALMSPAGMLRGDFSLRLFNVTPQDEQKFHCLVLSSSLGFQEVLSVEVTLHVAANFSVPVVSAPHSPSQDELTFTCTSINGYPRPNVYWINKTDNSLLDQALQNDTVFLNMRGLYDVVSVLRIARTPSVNIGCCIENVLLQQNLTVGSQTGNDIGERDKITENPVSTGEKNAAT , please. 205000 MFI

Same lookup for ICOSL-Fc N52L/N57V (Fc fusion) DTQEKEVRAMVGSDVELSCACPEGSRFDLNDVYVYWQTSESKTVVTYHIPQLSSLEVVDSRYRNRALMSPAGMLRGDFSLRLFNVTPQDEQKFHCLVLSQSLGFQEVLSVEVTLHVAANFSVPVVSAPHSPSQDELTFTCTSINGYPRPNVYWINKTDNSLLDQALQNDTVFLNMRGLYDVVSVLRIARTPSVNIGCCIENVLLQQNLTVGSQTGNDIGERDKITENPVSTGEKNAAT , please. 151000 MFI
